# system-name: Glucose-6-phosphate 1-dehydrogenase (Homo sapiens, UniProt P11413)
# Sequence (P11413 whole entry): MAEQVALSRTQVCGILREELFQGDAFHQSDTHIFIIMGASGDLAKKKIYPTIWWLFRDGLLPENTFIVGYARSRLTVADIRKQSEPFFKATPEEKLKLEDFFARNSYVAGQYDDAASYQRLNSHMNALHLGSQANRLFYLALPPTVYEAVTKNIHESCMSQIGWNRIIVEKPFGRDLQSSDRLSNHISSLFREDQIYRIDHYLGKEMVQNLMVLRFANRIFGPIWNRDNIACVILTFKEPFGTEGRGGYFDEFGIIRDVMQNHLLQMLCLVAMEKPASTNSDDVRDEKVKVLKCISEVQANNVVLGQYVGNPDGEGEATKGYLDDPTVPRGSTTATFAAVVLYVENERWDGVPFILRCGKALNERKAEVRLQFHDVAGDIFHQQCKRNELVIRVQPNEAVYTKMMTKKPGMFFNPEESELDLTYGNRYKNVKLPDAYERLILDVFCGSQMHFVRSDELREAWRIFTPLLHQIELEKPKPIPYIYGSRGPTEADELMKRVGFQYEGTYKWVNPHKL
# protocol-notes: human G6PD enzyme inhibitors, dose response, selectivity assay for P. falciparum G6PD inhibitor project, biochemical, fluorescence (AID 504792)
# Assay type: functional
Active and inactive are the calls of the source.
measure-name: IC50

COc1ccc(CNC(=O)Cc2cn(C)c3ccccc23)c(OC)c1 :: > 80 µM (inactive)
COc1ccccc1NS(=O)(=O)c1cc(NC(=O)c2ccc(Cl)nc2)ccc1N1CCCC1 :: > 80 µM (inactive)
Cc1cc(C)c(S(=O)(=O)/N=C2/C=C(SCC(=O)O)C(=O)c3ccccc32)cc1C :: 30.2 µM (inactive)
COc1cc(NC(C)CCc2ccccc2)cc(OC)c1OC (centres undefined) :: 43.3 µM (inactive)
O=C(CCC(=O)Nc1ccccc1Cl)N/N=C/c1ccccc1 :: 31.6 µM (inactive)
CCOC(=O)Cc1cc(O)n2nc(C(C)(C)C)cc2n1 :: > 80 µM (inactive)
CC(C)Cn1c([N+](=O)[O-])nc2c1c(=O)[nH]c(=O)n2C :: > 80 µM (inactive)
O=C1NC(=S)NC(=O)C1=Cc1ccc(Br)s1 :: 36.4 µM (inactive)
COc1ccc2ccccc2c1C1CC(=O)N2CN(C3CCCCC3)CSC2=C1C#N (centres undefined) :: > 80 µM (inactive)

----------
# protocol-notes: inhibitors of SNCA 5'UTR-driven reporter translation, confirmation, H4 neuroglioma cells, luminescence (AID 1988)
# Assay type: functional, cell-based
Activity calls are given as the source filed them.
measure-name: EC50

CCOC(=O)c1cnc2c(OC)cccc2c1N1CCN(c2ccccc2OC)CC1 :: 8.6 µM (active)
O=C(O)c1ccc2c3c(ncnc13)-c1ccccc1C2=O :: 2.45 µM (active)
COc1ccc(Nc2cc(C)nc(-n3nc(C)cc3C)n2)cc1 :: < 0.195 µM (active)
Cc1c(Cl)cccc1N=C(S)N(Cc1cccs1)C1CCCC1 :: > 120 µM (not active)
CCN(CC)CCn1c2ccccc2c2nc3ccc([N+](=O)[O-])cc3cc21 :: 8.22 µM (inconclusive)

----------
# system-name: FAD-linked sulfhydryl oxidase ALR (Homo sapiens)
# Sequence (P55789 whole entry): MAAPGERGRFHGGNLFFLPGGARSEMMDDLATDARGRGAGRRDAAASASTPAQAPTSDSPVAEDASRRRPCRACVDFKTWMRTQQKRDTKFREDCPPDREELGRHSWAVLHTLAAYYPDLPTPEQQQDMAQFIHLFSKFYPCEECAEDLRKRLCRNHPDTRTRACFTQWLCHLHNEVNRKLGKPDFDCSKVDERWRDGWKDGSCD
# protocol-notes: inhibitors of human ALR sulfhydryl oxidase, dose response, biochemical, H2O2 detection, luminescence, cherry-pick (AID 493248)
Activity calls are given as the source filed them.
# AC50 per record follows
measure-name: AC50

CCCn1cnc2cc(NCc3ccccc3O)ccc21 :: 3.92 µM (active)
COc1cc(/C=N/NC(=O)CCNC(=O)c2ccccc2Cl)ccc1O :: 3.1 µM (active)
Nc1cc([N+](=O)[O-])ccc1Nc1ccc(O)cc1 :: 0.269 µM (active)
CN(C)c1ccc(/C=C2\SC(=O)N(CCc3nnc(N)s3)C2=O)cc1 :: 1.87 µM (active)

----------
# System: Streptococcus sp. 'group A'
# protocol-notes: growth inhibition of control SK(-) GAS strain, dose response, counter-screen for streptokinase expression inhibitor project, luminescence, kanamycin, BacTiterGlo, confirmation (AID 1900)
# Type: functional, organism-based
The source made the active and inactive calls.
measure-name: EC50

C/C(=N/Nc1nc(-c2ccccc2F)nc2ccccc12)c1ccccc1O :: 10.2 µM (active)
Oc1c(Cl)cc(Cl)c2cccnc12 :: 0.258 µM (active)
O=C(Cn1nc2ccccc2n1)N/N=C/c1cc([N+](=O)[O-])ccc1O :: 0.419 µM (active)
CCCOc1ccc(C(=O)NC(=S)NNC(=O)c2c(-c3ccccc3)noc2C)cc1 :: 0.137 µM (active)
CC(=O)Oc1ccc(-c2nc(-c3cccnc3)no2)cc1 :: 4.89 µM (active)
Cc1cccc(C)c1OCC(O)Cn1c2ccccc2c2ccccc21 (stereo not given) :: 6.75 µM (active)
Cc1nc(-n2nc3c(c2O)CCCC3)[nH]c(=O)c1Cc1ccccc1 :: 1.14 µM (active)
O=C(Nc1ccccc1-c1nc2ccccc2[nH]1)c1sc2ccccc2c1Cl :: 21.3 µM (active)
O=c1c2ccccc2c(-c2ccccc2)nn1Cc1c(Cl)cccc1Cl :: 7.76 µM (active)
Cc1cc(SCC(=O)N/N=C/c2ccc(O)c(O)c2O)c(C)cc1Br :: 3.27 µM (active)
